# System: BL2-NFkB-Luc
# assay-summary: CD40L-induced NF-kB luciferase activity, plate-corrected, relative to DMSO (0) and IKK inhibitor VII (-100) controls (% normalized activity); higher = more NF-kB reporter activity (less inhibition)
# condition-info: 9.4 µM; stimulus: tCD40L 64 ng/ml; 4.5 h
Whole data set: some 1,900 compounds, median “CD40L-induced NF-kB luciferase activity, plate-corrected, relative to DMSO (0) and IKK inhibitor VII (-100) controls” near 0.032, cut for the lowest 2% near -26. This is one part of a sample in which the lowest values are shown more often than they occur.
Please note: 1 applies when CD40L-induced NF-kB luciferase activity is 2 or greater, and -1 applies otherwise.

Reference set, count: 2
molecule	group
CCCC(=O)O[C@]1(C(=O)CCl)[C@@H](C)C[C@H]2[C@@H]3CCC4=CC(=O)C=C[C@]4(C)[C@@]3(F)C(=O)C[C@@]21C	-1
Cc1cc(O)c(C(=O)Cc2csc(C)n2)c(O)c1	1

Q. Does the reported CD40L-induced NF-kB luciferase activity for COc1ccc(-c2coc3cc(OC(=O)N4CCOCC4)ccc3c2=O)cc1 fall at or above the 2 mark?
A. 1

Q. Please tell me: is the molecule CCOC(=O)C(=Cc1ccccc1OC)C(=O)OCC at or over 2 in terms of CD40L-induced NF-kB luciferase activity?
A. -1

Q. Does CD40L-induced NF-kB luciferase activity meet or surpass 2 for COc1ccc2[nH]cc(C3N4CC5(C)CN3CC(C)(C4)C5=O)c2c1 (stereo not drawn) ?
A. 1

Q. Can C[C@H]1C[C@H]2[C@@H]3CCC4=CC(=O)C=C[C@]4(C)[C@@]3(Cl)[C@@H](O)C[C@]2(C)[C@@]1(O)C(=O)CO be said to have CD40L-induced NF-kB luciferase activity at or above 2?
A. -1

Q. Exam item: decide whether the reported CD40L-induced NF-kB luciferase activity for COc1ccc2[nH]c(=O)c(CN(C(=O)c3ccco3)C(C)C)cc2c1 is at least 2.
A. -1

Q. Has O=C(NCCc1c[nH]c2ccccc12)OCCSS(=O)(=O)O a recorded CD40L-induced NF-kB luciferase activity greater than or equal to 2?
A. -1

====

# CD40L-induced NF-kB luciferase activity annotations
# Tested on: BL2-NFkB-Luc
# assay-summary: CD40L-induced NF-kB luciferase activity, plate-corrected, relative to DMSO (0) and IKK inhibitor VII (-100) controls (% normalized activity); higher = more NF-kB reporter activity (less inhibition)
# condition-info: 9.4 µM; stimulus: tCD40L 64 ng/ml; 4.5 h
Over roughly 1,900 compounds, “CD40L-induced NF-kB luciferase activity, plate-corrected, relative to DMSO (0) and IKK inhibitor VII (-100) controls” has its median near 0.032; the lowest 2% begin near -26. For the sample, the lowest values were picked, then their nearest neighbours and some compounds at random.
Reply with just the number.

Q. Can you share its CD40L-induced NF-kB luciferase activity? I mean this compound: Cc1ccc2c(c1)C(O)(c1c(C)[nH]c3ccccc13)C(=O)N2 (stereo not given)
A. 3.92

Q. Need CD40L-induced NF-kB luciferase activity, item COc1cc(C(=O)NCCc2c[nH]c3ccccc23)ccc1OCc1c(C)noc1C
A. 2.18

====

# Test system: BL2-NFkB-Luc
# assay-summary: CD40L-induced NF-kB luciferase activity, plate-corrected, relative to DMSO (0) and IKK inhibitor VII (-100) controls (% normalized activity); higher = more NF-kB reporter activity (less inhibition)
# condition-info: 9.4 µM; stimulus: tCD40L 64 ng/ml; 4.5 h
The full ranking holds about 1,900 compounds; the median of “CD40L-induced NF-kB luciferase activity, plate-corrected, relative to DMSO (0) and IKK inhibitor VII (-100) controls” is about 0.032, and the lowest 2% start at about -26. The full list was thinned out, with the lowest values kept by preference.
Below, each entry is listed with its recorded CD40L-induced NF-kB luciferase activity.
Output spec: single numeric token, no unit.

molecule	CD40L-induced NF-kB luciferase activity
O=C(CC1(O)C(=O)Nc2ccccc21)c1ccccc1O (stereo not drawn)	1.73
CC(=O)[C@@]1(O)CC[C@H]2[C@@H]3CCC4=CC(=O)CC[C@]4(C)[C@H]3[C@@H](O)C[C@@]21C	-12.9

Turning now to a further record.
Q. # query: CD40L-induced NF-kB luciferase activity | item C[C@]12CCC(=O)C=C1CC[C@@H]1[C@@H]2CC[C@@]2(C)[C@H]1CC[C@]2(O)C(=O)CO | system: BL2-NFkB-Luc
A. -8.87
